Attribution: patent US20240279283A1

Test system: E. coli BW25113
test_name: Minimum Inhibitory Concentration (MIC) determination, E. coli BW25113
Assay type: cell-based
Set-up: unit not given here
cond: LB broth, 5×10^5 CFU/ml, 37° C., 18 hours, scored by eye
Bridge positions count the residues as written; N and C are the ends. Square brackets hold non-standard residues; d marks the D form. Peptide text beside a SMILES is read from it. 1Nal = N[C@@H](Cc1cccc2ccccc12)C(=O)O; His(π-Me) = Cn1cncc1C[C@H](N)C(=O)O; NMeY = CN[C@@H](Cc1ccc(O)cc1)C(=O)O; Abu = CC[C@H](N)C(=O)O
reported_property: MIC E. coli BW25113 WUXI::MIC
Write no unit; give the number alone.

Example entries begin here.
CC(C)[C@@H]1NC(=O)[C@H](Cc2ccccc2)NC(=O)CSC[C@@H](C(=O)NCC(N)=O)NC(=O)[C@H](Cc2cncn2C)NC(=O)[C@H](CCCNC(=N)N)NC(=O)[C@H](Cc2cnc[nH]2)NC(=O)[C@H](Cc2ccccc2)N(C)C(=O)[C@H](CCCNC(=N)N)NC(=O)[C@H](CO)NC(=O)CNC(=O)[C@H](Cc2cnc[nH]2)NC(=O)[C@H](Cc2c[nH]c3ccccc23)NC1=O (racemic) [Compound 9]; 8
CC[C@@H]1NC(=O)[C@H](Cc2ccccc2)NC(=O)CSC[C@@H](C(=O)NCC(N)=O)NC(=O)[C@H](Cc2cncn2C)NC(=O)[C@H](CCCNC(=N)N)NC(=O)[C@H](Cc2cnc[nH]2)NC(=O)[C@H](Cc2ccccc2)N(C)C(=O)[C@H](CCCNC(=N)N)NC(=O)[C@H](CO)NC(=O)CN(C)C(=O)[C@H](Cc2cnc[nH]2)NC(=O)[C@H](Cc2c[nH]c3ccccc23)NC1=O (racemic) [Compound 11]; 8
CC[C@@H]1NC(=O)[C@H](Cc2ccccc2)NC(=O)CSC[C@@H](C(=O)NCC(N)=O)NC(=O)[C@H](Cc2cncn2C)NC(=O)[C@H](CCCNC(=N)N)NC(=O)[C@H](Cc2cnc[nH]2)NC(=O)[C@H](Cc2ccc(O)cc2)N(C)C(=O)[C@H](CCCNC(=N)N)NC(=O)[C@H](CO)NC(=O)CNC(=O)[C@H](Cc2cnc[nH]2)NC(=O)[C@H](Cc2cccc3ccccc23)NC1=O (racemic) [Compound 16]; 14.767

[Q] Using E. coli BW25113 as the test system, report measured MIC E. coli BW25113 WUXI::MIC of CC[C@@H]1NC(=O)[C@H](Cc2ccc(O)cc2)NC(=O)CSC[C@@H](C(=O)NCC(N)=O)NC(=O)[C@H](Cc2cncn2C)NC(=O)[C@H](CCCNC(=N)N)NC(=O)[C@H](Cc2c[nH]cn2)NC(=O)[C@H](Cc2ccc(O)cc2)N(C)C(=O)[C@H](CCCNC(=N)N)NC(=O)[C@H](CO)NC(=O)CNC(=O)[C@H](Cc2c[nH]cn2)NC(=O)[C@H](Cc2cccc3ccccc23)NC1=O [Compound 19] ({CH2CO}-Y[Abu][1Nal]HGSR[NMeY]HR[His(π-Me)]CG-NH2; thioether N-12) .
[A] 6.3
